All figures here come from patent US6638947B2.

So I've got a bunch of compounds here, and I need their melting point values.

CCCCCC(CC)Oc1ccc(C=NNC(N)=O)cc1 (centres unmarked) [Example 32b, 4-(3-Octoxy)benzaldehyde semicarbazone] : 45 °C
NC(=O)NN=Cc1ccc(Oc2ccc([N+](=O)[O-])cc2)cc1 : 221 to 222 °C
NC(=O)NN=Cc1ccc(OCC2CCCCC2)cc1 : 218 to 219 °C
CN(N=Cc1ccc(Oc2ccc(F)cc2)c(F)c1)C(N)=O : 169 to 172 °C

## Task Dear colleague, please send me the reported melting point for "NC(=O)NN=Cc1ccc(OC2CCOCC2)cc1" when you can.
## Result 208 to 209 °C
